Tested on: Human papillomavirus type 1a E7 protein (residues 1-88)
Assay: HPV1a E7 small-molecule binders, primary screen, biochemical, small-molecule microarray, residues 1-88, 635 nm (AID 1129)
Conditions: small-molecule microarray binding, fluorescence 635 nm; higher = more signal
Reported composite z-score values are given for each entry in this list.

Compound: O=C1C2C=CC(C(O)c3ccccn3)N(Nc3ccccc3F)C2C(=O)N1c1ccccc1 (stereo not drawn)
Test system: Human papillomavirus type 1a E7 protein (residues 1-88)
composite z-score: 0.525
//
Compound: COc1ccc(C(O)C2C=CC3C(=O)N(c4ccccc4)C(=O)C3N2Nc2ccccc2)c2ccccc12 (stereo not drawn)
Test system: Human papillomavirus type 1a E7 protein (residues 1-88)
composite z-score: 1.12
//
Compound: CC(C)[Si]1(C(C)C)O[C@@H](c2ccccc2)c2cc(-c3ccc(-c4ccc(Cl)c(Cl)c4)o3)nc(CCc3ccccc3)c21
Test system: Human papillomavirus type 1a E7 protein (residues 1-88)
composite z-score: -0.339
//
Compound: [N-]=[N+]=NCc1ccccc1[C@@H]1OC(c2ccc(OCCCO)cc2)=N[C@]1(Cc1ccccc1N=[N+]=[N-])C(N)=O
Test system: Human papillomavirus type 1a E7 protein (residues 1-88)
composite z-score: 1.26
//
Compound: O=P(NCC1(CC2(c3ccccc3)CO2)CC1)(c1ccccc1)c1ccccc1 (stereo not drawn)
Test system: Human papillomavirus type 1a E7 protein (residues 1-88)
composite z-score: 0.376
//
Compound: O=C1OCC=C[C@H]2OC34C=CCN(Cc5ccccc5)C(=O)[C@H]3N(CCCO)C(=O)[C@@H]4[C@@H]12 (stereo partly drawn)
Test system: Human papillomavirus type 1a E7 protein (residues 1-88)
composite z-score: 0.374
//
Compound: COC(=O)[C@@]1(Cc2ccc(F)cc2)[C@H]2c3cc(C(=O)N4CCCC4)n(Cc4ccc(Cl)c(C(F)(F)F)c4)c3C[C@H]2CN1C(=O)c1ccccc1
Test system: Human papillomavirus type 1a E7 protein (residues 1-88)
composite z-score: 1.23
//
Compound: Cc1cccc(/C=C/C=O)c1
Test system: Human papillomavirus type 1a E7 protein (residues 1-88)
composite z-score: -0.115
